Data origin: the supplement of paper PMC6555819

Tested on: RXRa DBDmut IVT, anti-RXR (DBD mutation: RXRa K156A/R161A, NR concentration 90 nM)
Experiment: PBM binding z-score (relative to random genomic background probes); higher = stronger binding; sequences stand for … in GC…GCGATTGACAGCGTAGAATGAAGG
Measured PBM binding z-score accompanies every entry in the list below.

{"Residue String": "TTACCAAGGTGAAGATCGTTGATCCCTCTGTAGA", "Study Target": "RXRa DBDmut IVT, anti-RXR (DBD mutation: RXRa K156A/R161A, NR concentration 90 nM)", "PBM binding z-score": -0.349}
{"Residue String": "CCGACTGGGGCAGAAAGGTGACCATACCATCCGG", "Study Target": "RXRa DBDmut IVT, anti-RXR (DBD mutation: RXRa K156A/R161A, NR concentration 90 nM)", "PBM binding z-score": -0.975}
{"Residue String": "CCTCGGAGGACAACAGGAGGACAGAGCTGCCAGA", "Study Target": "RXRa DBDmut IVT, anti-RXR (DBD mutation: RXRa K156A/R161A, NR concentration 90 nM)", "PBM binding z-score": -0.107}
{"Residue String": "TATACAGGGTCAAAGGCCATAGTACGAATGTCGA", "Study Target": "RXRa DBDmut IVT, anti-RXR (DBD mutation: RXRa K156A/R161A, NR concentration 90 nM)", "PBM binding z-score": 3.05}
{"Residue String": "CGTCCATGGTCAGAGAGGTCAGTGAATGCCGAGT", "Study Target": "RXRa DBDmut IVT, anti-RXR (DBD mutation: RXRa K156A/R161A, NR concentration 90 nM)", "PBM binding z-score": 0.839}
{"Residue String": "GATACAGGATCAAGGCCAGAGTACGCGTATTGAT", "Study Target": "RXRa DBDmut IVT, anti-RXR (DBD mutation: RXRa K156A/R161A, NR concentration 90 nM)", "PBM binding z-score": -0.499}
{"Residue String": "GGATCGAGGGCATTCGAGTTGATAGCATGGCGAT", "Study Target": "RXRa DBDmut IVT, anti-RXR (DBD mutation: RXRa K156A/R161A, NR concentration 90 nM)", "PBM binding z-score": 3.06}
{"Residue String": "CAAACTATGTCAAGAGGTCAAAGTCCGCTTCCCG", "Study Target": "RXRa DBDmut IVT, anti-RXR (DBD mutation: RXRa K156A/R161A, NR concentration 90 nM)", "PBM binding z-score": 2.09}
{"Residue String": "ACAATTAGTTGACTTAGGGCAACCGATACGACGC", "Study Target": "RXRa DBDmut IVT, anti-RXR (DBD mutation: RXRa K156A/R161A, NR concentration 90 nM)", "PBM binding z-score": 0.628}
{"Residue String": "GCTAGCAGGCCATTTGGGTCAGTCAATGACGGGC", "Study Target": "RXRa DBDmut IVT, anti-RXR (DBD mutation: RXRa K156A/R161A, NR concentration 90 nM)", "PBM binding z-score": -0.27}
{"Residue String": "TCTCGGAGGCCACGAAGGTCAGAGCTTTCCAGAG", "Study Target": "RXRa DBDmut IVT, anti-RXR (DBD mutation: RXRa K156A/R161A, NR concentration 90 nM)", "PBM binding z-score": 0.442}
{"Residue String": "CCTAATAGTTGACCATAAGGGCAACCGAAGCTCG", "Study Target": "RXRa DBDmut IVT, anti-RXR (DBD mutation: RXRa K156A/R161A, NR concentration 90 nM)", "PBM binding z-score": 0.375}
{"Residue String": "GCGACCGGGGCATCAGCAGGTTACCATAACTTAA", "Study Target": "RXRa DBDmut IVT, anti-RXR (DBD mutation: RXRa K156A/R161A, NR concentration 90 nM)", "PBM binding z-score": -0.302}
{"Residue String": "AGTCAAAGTTCATCGAGGTAACGTAAGATATGCT", "Study Target": "RXRa DBDmut IVT, anti-RXR (DBD mutation: RXRa K156A/R161A, NR concentration 90 nM)", "PBM binding z-score": 4.45}
{"Residue String": "TCTATTAGTTGAAGGGCATCCGACGAGTCCGTTT", "Study Target": "RXRa DBDmut IVT, anti-RXR (DBD mutation: RXRa K156A/R161A, NR concentration 90 nM)", "PBM binding z-score": 1.86}
{"Residue String": "ACTTACCGGTCAACGAGGTTATAGCACGCGTATA", "Study Target": "RXRa DBDmut IVT, anti-RXR (DBD mutation: RXRa K156A/R161A, NR concentration 90 nM)", "PBM binding z-score": 1.25}
{"Residue String": "CTCGAAAGGTCGGTTTAGGTGAGTATACGGATAA", "Study Target": "RXRa DBDmut IVT, anti-RXR (DBD mutation: RXRa K156A/R161A, NR concentration 90 nM)", "PBM binding z-score": 1.26}
{"Residue String": "CATACAGGTTCAGCTAGGCCAGAGTAGGGACGGC", "Study Target": "RXRa DBDmut IVT, anti-RXR (DBD mutation: RXRa K156A/R161A, NR concentration 90 nM)", "PBM binding z-score": 2.89}
{"Residue String": "CGTCCAAGGTCAGGGTCAGTGAAAGAGACTCGAA", "Study Target": "RXRa DBDmut IVT, anti-RXR (DBD mutation: RXRa K156A/R161A, NR concentration 90 nM)", "PBM binding z-score": 2.75}
{"Residue String": "TCGCGTAGGTTACCAATGGGGCATTCAGCTTTCT", "Study Target": "RXRa DBDmut IVT, anti-RXR (DBD mutation: RXRa K156A/R161A, NR concentration 90 nM)", "PBM binding z-score": 0.302}
{"Residue String": "GCTAGCAAGCCATTTGGGTCACTCAATGACGGGC", "Study Target": "RXRa DBDmut IVT, anti-RXR (DBD mutation: RXRa K156A/R161A, NR concentration 90 nM)", "PBM binding z-score": -0.364}
{"Residue String": "CAAACTAGGTCACGAAAGGCCAAAGTCGAATGAC", "Study Target": "RXRa DBDmut IVT, anti-RXR (DBD mutation: RXRa K156A/R161A, NR concentration 90 nM)", "PBM binding z-score": 2.01}
{"Residue String": "GCTGCTAGGTCATCTGATGGTCAGCTAAAGCTCG", "Study Target": "RXRa DBDmut IVT, anti-RXR (DBD mutation: RXRa K156A/R161A, NR concentration 90 nM)", "PBM binding z-score": 2}
{"Residue String": "TTACCAACGTGAGCTGAGGTCGTTGATCCAACTC", "Study Target": "RXRa DBDmut IVT, anti-RXR (DBD mutation: RXRa K156A/R161A, NR concentration 90 nM)", "PBM binding z-score": 0.168}
{"Residue String": "ATCTCTAGGTAAAGTTCAGTGCAAGATCGATAGA", "Study Target": "RXRa DBDmut IVT, anti-RXR (DBD mutation: RXRa K156A/R161A, NR concentration 90 nM)", "PBM binding z-score": 1.39}
{"Residue String": "TAGCCGAGGTCATTGGGCCAGTATAGTACGCATC", "Study Target": "RXRa DBDmut IVT, anti-RXR (DBD mutation: RXRa K156A/R161A, NR concentration 90 nM)", "PBM binding z-score": 4.42}
{"Residue String": "TGTAAAAGTTCAAAGGTAACGTAAGTATCCACAC", "Study Target": "RXRa DBDmut IVT, anti-RXR (DBD mutation: RXRa K156A/R161A, NR concentration 90 nM)", "PBM binding z-score": 4.06}
{"Residue String": "CATACAGGGTCAGCTAGGCCATAGTAGGGACGGC", "Study Target": "RXRa DBDmut IVT, anti-RXR (DBD mutation: RXRa K156A/R161A, NR concentration 90 nM)", "PBM binding z-score": 1.7}
{"Residue String": "TTGCCTAGGTCATGCGGGCCAGTATAGTGTCGGC", "Study Target": "RXRa DBDmut IVT, anti-RXR (DBD mutation: RXRa K156A/R161A, NR concentration 90 nM)", "PBM binding z-score": 0.791}
{"Residue String": "ACACACAGGTGAGTGAAGGTAACTCAGCTGGACG", "Study Target": "RXRa DBDmut IVT, anti-RXR (DBD mutation: RXRa K156A/R161A, NR concentration 90 nM)", "PBM binding z-score": -0.0875}
{"Residue String": "CCTCGGAGGACAACACGAGGTCAGAGCTGCCAGA", "Study Target": "RXRa DBDmut IVT, anti-RXR (DBD mutation: RXRa K156A/R161A, NR concentration 90 nM)", "PBM binding z-score": 0.871}
{"Residue String": "CAAACTAGGTCACCGGAATGTCAAAGTCCGCATG", "Study Target": "RXRa DBDmut IVT, anti-RXR (DBD mutation: RXRa K156A/R161A, NR concentration 90 nM)", "PBM binding z-score": 1.81}
{"Residue String": "TCAGACACGTGAAGGTAACTCAGGTACGCAGTCG", "Study Target": "RXRa DBDmut IVT, anti-RXR (DBD mutation: RXRa K156A/R161A, NR concentration 90 nM)", "PBM binding z-score": 1.06}
{"Residue String": "CAAATTAGGTCACAGAGGTCAAAGTCCGTGCGTA", "Study Target": "RXRa DBDmut IVT, anti-RXR (DBD mutation: RXRa K156A/R161A, NR concentration 90 nM)", "PBM binding z-score": 3.72}
{"Residue String": "TTACCAAGGTGAAGGCCGTTGATCCCTCTGTAGA", "Study Target": "RXRa DBDmut IVT, anti-RXR (DBD mutation: RXRa K156A/R161A, NR concentration 90 nM)", "PBM binding z-score": -0.411}
{"Residue String": "TCATATAGCTAAAGGTGAAAGTCGAACGATATGA", "Study Target": "RXRa DBDmut IVT, anti-RXR (DBD mutation: RXRa K156A/R161A, NR concentration 90 nM)", "PBM binding z-score": 0.443}
{"Residue String": "CTCGAAACGTCGGTTGAGGTGAGTATACGGATAA", "Study Target": "RXRa DBDmut IVT, anti-RXR (DBD mutation: RXRa K156A/R161A, NR concentration 90 nM)", "PBM binding z-score": -0.0246}
{"Residue String": "CAAACTAGGTCACCGGAAGATCAAAGTCCGCATG", "Study Target": "RXRa DBDmut IVT, anti-RXR (DBD mutation: RXRa K156A/R161A, NR concentration 90 nM)", "PBM binding z-score": 1.93}
{"Residue String": "CCTCGGAGGACAGAAGGTCAGAGCGGTCCGCTTT", "Study Target": "RXRa DBDmut IVT, anti-RXR (DBD mutation: RXRa K156A/R161A, NR concentration 90 nM)", "PBM binding z-score": 0.0416}
{"Residue String": "AATACAGGGTCACTAGACCAGAGTAGGTACGAAT", "Study Target": "RXRa DBDmut IVT, anti-RXR (DBD mutation: RXRa K156A/R161A, NR concentration 90 nM)", "PBM binding z-score": 2.68}
{"Residue String": "ATCTCTAGGTAAGACTCAGTTCATTGAAGAACGC", "Study Target": "RXRa DBDmut IVT, anti-RXR (DBD mutation: RXRa K156A/R161A, NR concentration 90 nM)", "PBM binding z-score": 1.31}
{"Residue String": "CGAACTAGGTCAGAACAGGACAGTGCAGGATGAT", "Study Target": "RXRa DBDmut IVT, anti-RXR (DBD mutation: RXRa K156A/R161A, NR concentration 90 nM)", "PBM binding z-score": 0.591}
{"Residue String": "TCTGCTAGGTCAGTTGGCCAGCTAACGAGCTGCC", "Study Target": "RXRa DBDmut IVT, anti-RXR (DBD mutation: RXRa K156A/R161A, NR concentration 90 nM)", "PBM binding z-score": 0.428}
{"Residue String": "TCGAGTAGGTGAGGGGCATTCAGAATGGCGTCGA", "Study Target": "RXRa DBDmut IVT, anti-RXR (DBD mutation: RXRa K156A/R161A, NR concentration 90 nM)", "PBM binding z-score": 0.0823}
{"Residue String": "AATCAAAGTTCAGGACGAGGTAACGTAAAGCACG", "Study Target": "RXRa DBDmut IVT, anti-RXR (DBD mutation: RXRa K156A/R161A, NR concentration 90 nM)", "PBM binding z-score": 2.68}
{"Residue String": "CAAACTAGGTCACCGAGGTCAAAGTCCGTGCGTA", "Study Target": "RXRa DBDmut IVT, anti-RXR (DBD mutation: RXRa K156A/R161A, NR concentration 90 nM)", "PBM binding z-score": 3.46}
{"Residue String": "CATACAAGGTCAGCTAGGCCAGAGTAGGGACGGC", "Study Target": "RXRa DBDmut IVT, anti-RXR (DBD mutation: RXRa K156A/R161A, NR concentration 90 nM)", "PBM binding z-score": 2.04}
{"Residue String": "GCTGCTAGGTCAACTGATGGTCAGCTATAGCTCG", "Study Target": "RXRa DBDmut IVT, anti-RXR (DBD mutation: RXRa K156A/R161A, NR concentration 90 nM)", "PBM binding z-score": 1.79}
{"Residue String": "CAAACTAGGCCAAGAGGTCAAAGTCCGCTTCCCG", "Study Target": "RXRa DBDmut IVT, anti-RXR (DBD mutation: RXRa K156A/R161A, NR concentration 90 nM)", "PBM binding z-score": 2.07}
{"Residue String": "CGAACTAGGTCAGAACAGGACTGTGAAGGATGAT", "Study Target": "RXRa DBDmut IVT, anti-RXR (DBD mutation: RXRa K156A/R161A, NR concentration 90 nM)", "PBM binding z-score": 0.646}
{"Residue String": "TTACCAAGGTGAGCTGAGGTCGTTGATCCAACTC", "Study Target": "RXRa DBDmut IVT, anti-RXR (DBD mutation: RXRa K156A/R161A, NR concentration 90 nM)", "PBM binding z-score": 0.206}
